- assay-system: T1, RBFOX1 RRM RbFoxmut (Fox-RRM*) (Homo sapiens, UniProt Q9NWB1 109-208, R118D;E147R;N151S;E152T)
- T1 sequence: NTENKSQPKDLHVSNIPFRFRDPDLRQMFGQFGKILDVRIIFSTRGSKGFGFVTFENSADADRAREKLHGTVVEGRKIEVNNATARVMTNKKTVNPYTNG
- test-method-notes: EMSA; HiTS-Eq, 1 nM pool, 10 min; buffer printed only for the single-RNA assays: 10 mM Tris pH 7.5, 150 mM NaCl, 3.4 mM EDTA, 0.001% NP-40, 30 C
- measurement-conditions: tags: His6 N-terminal (pET28a); label: 5' 32P
Whole data set: some 16,000 sequences, median “ka relative to ugcaugu” near 0.096, cut for the highest 2% near 0.35. Many of the other results were omitted from the sample, so the highest values are more common in it than they were.
property: binding signal

stdin: I have this binder here, CGCGCUU (DNA:RNA) RNA: GGGAGACCGGAAUUCAGAUUGUCCCGCGCUUUUAAAUCCCGUCGUAGCCACCA DNA 1: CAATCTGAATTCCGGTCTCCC DNA 2: TGGTGGCTACGACGGGATT , and I need its recorded binding signal.
stdout: 0.1 KA relative to UGCAUGU

stdin: I have this binder here, CUCGGCU (DNA:RNA) RNA: GGGAGACCGGAAUUCAGAUUGUCCCUCGGCUUUAAAUCCCGUCGUAGCCACCA DNA 1: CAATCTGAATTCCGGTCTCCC DNA 2: TGGTGGCTACGACGGGATT , and I need its recorded binding signal.
stdout: 0.0859 KA relative to UGCAUGU

stdin: I have this binder here, GUGUACG (DNA:RNA) RNA: GGGAGACCGGAAUUCAGAUUGUCCGUGUACGUUAAAUCCCGUCGUAGCCACCA DNA 1: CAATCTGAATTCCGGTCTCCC DNA 2: TGGTGGCTACGACGGGATT , and I need its recorded binding signal.
stdout: 0.441 KA relative to UGCAUGU

stdin: I have this binder here, UCGUUUG (DNA:RNA) RNA: GGGAGACCGGAAUUCAGAUUGUCCUCGUUUGUUAAAUCCCGUCGUAGCCACCA DNA 1: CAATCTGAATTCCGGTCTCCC DNA 2: TGGTGGCTACGACGGGATT , and I need its recorded binding signal.
stdout: 0.396 KA relative to UGCAUGU

stdin: I have this binder here, GUACGUG (DNA:RNA) RNA: GGGAGACCGGAAUUCAGAUUGUCCGUACGUGUUAAAUCCCGUCGUAGCCACCA DNA 1: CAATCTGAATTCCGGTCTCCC DNA 2: TGGTGGCTACGACGGGATT , and I need its recorded binding signal.
stdout: 0.188 KA relative to UGCAUGU

stdin: I have this binder here, CGACCAC (DNA:RNA) RNA: GGGAGACCGGAAUUCAGAUUGUCCCGACCACUUAAAUCCCGUCGUAGCCACCA DNA 1: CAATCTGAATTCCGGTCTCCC DNA 2: TGGTGGCTACGACGGGATT , and I need its recorded binding signal.
stdout: 0.0643 KA relative to UGCAUGU

stdin: I have this binder here, GAAAGCU (DNA:RNA) RNA: GGGAGACCGGAAUUCAGAUUGUCCGAAAGCUUUAAAUCCCGUCGUAGCCACCA DNA 1: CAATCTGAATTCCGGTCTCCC DNA 2: TGGTGGCTACGACGGGATT , and I need its recorded binding signal.
stdout: 0.0545 KA relative to UGCAUGU

stdin: I have this binder here, UCAUAGC (DNA:RNA) RNA: GGGAGACCGGAAUUCAGAUUGUCCUCAUAGCUUAAAUCCCGUCGUAGCCACCA DNA 1: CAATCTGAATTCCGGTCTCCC DNA 2: TGGTGGCTACGACGGGATT , and I need its recorded binding signal.
stdout: 0.116 KA relative to UGCAUGU

stdin: I have this binder here, UACUCAU (DNA:RNA) RNA: GGGAGACCGGAAUUCAGAUUGUCCUACUCAUUUAAAUCCCGUCGUAGCCACCA DNA 1: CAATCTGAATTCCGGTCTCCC DNA 2: TGGTGGCTACGACGGGATT , and I need its recorded binding signal.
stdout: 0.0982 KA relative to UGCAUGU
